test system: A498 renal; assay: NCI tumour cell line growth inhibition, 48 h
Label condition met when TGI is at or above 20 µM; anything below gets condition not met.

Before answering, review these 6 worked examples.
compound: CN1C(=O)C(=CN(C)c2ccccc2)C(=O)N(C)C1=O
group.label: condition met
--
compound: NCCN1C(=O)c2ccccc2C1(O)c1ccc(Cl)cc1 (stereo not drawn)
group.label: condition met
--
compound: CCCCCCCCCCCCCCCCOc1ccc(/C=C/C2=[N+](CCCl)CCO2)cc1
group.label: condition met
--
compound: C[N+](C)(C)C(C1=CCCC1=O)c1ccccc1 (stereo not drawn)
group.label: condition met
--
compound: COc1cc2c(cc1O)C(c1cc(O)c(O)c(OC)c1)C(O)(C(=O)O)C(CO)C2O (stereo not drawn)
group.label: condition met
--
compound: CCCCCSC1C2C(=O)C(Br)=CC13CCNc1c(O)c4c5c(c13)=[N+]2CCC=5C=N4 (stereo not drawn)
group.label: condition not met

hey, is TGI for this one >= 20 µM? NC(=O)SCC(=O)Nc1ccc2ncccc2c1
condition met

hey, is TGI for this one >= 20 µM? COc1ccc2nccc(/C=C/c3ccnc4ccc(OC)cc34)c2c1
condition met

hey, is TGI for this one >= 20 µM? Cc1ncc(-c2ccnc(Nc3ccc(S(C)(=O)=O)cc3)n2)n1C(C)C
condition not met

hey, is TGI for this one >= 20 µM? Cc1ccc(C)c(COCCOCn2c(=O)[nH]c(=O)c3cc(Br)ccc32)c1
condition met

hey, is TGI for this one >= 20 µM? CC(=O)/C(=C\c1c(-c2ccccc2)[nH]c2ccccc12)S(=O)(=O)c1ccccc1
condition not met

hey, is TGI for this one >= 20 µM? Cc1cn2c(/C=N/N=C(N)N)c(-c3ccsc3)nc2s1
condition met

---

tested on: MOLT-4 leukemia; assay: NCI tumour cell line growth inhibition, 48 h; in the data active = GI50 below about 0.43 µM; inactive = the rest
Would you mind answering with one of these outcomes? TRUE (active), FALSE (inactive)

Before answering, review these 5 worked examples.
compound: Cn1c2ccccc2c2nnc(NNCc3ccccn3)nc21
group.label: TRUE
//
compound: Oc1ccccc1C=Nc1ccccc1N=Cc1ccccc1O.[Cu+2]
group.label: FALSE
//
compound: COc1ccc(/C(=N/O)c2cc(OC)c(OC)c(OC)c2)c(OC)c1N
group.label: FALSE
//
compound: CCN(CC)CCCNc1[nH]ncc2c(C)c3nc4ccccc4c3cc12
group.label: TRUE
//
compound: CSc1nc(N)c2c(n1)NC(c1ccccc1)C1CCc3ccccc3C1=N2 (stereo not given)
group.label: FALSE

Assay result, entry CN(C)c1ccc(/C=N/NC(=O)c2cccc3ccccc23)c(Cl)c1 — outcome?
FALSE

Assay result, entry CCN1C(=O)N(CC)C2C1NN=c1s/c(=C\c3cccc([N+](=O)[O-])c3)c(=O)n12 (stereo not given) — outcome?
TRUE

Assay result, entry CCCCCSC1C2C(=O)C(Br)=CC13CCNc1c(O)c4c5c(c13)=[N+]2CCC=5C=N4 (stereo not given) — outcome?
FALSE

Assay result, entry CC1(C)CC(=O)c2c(ccc(C(=O)C[C@@H](N)CO)c2N)O1 — outcome?
TRUE

Assay result, entry CC12CCC(O)CC1=CCC1C2CCC2(C)C(c3cccnc3)=CCC12 (stereo not given) — outcome?
FALSE

Assay result, entry CCCCN1CCN(c2ccc3nc(-c4ccc5nc(-c6ccc(OCC)c(OCC)c6)[nH]c5c4)[nH]c3c2)CC1 — outcome?
FALSE

Assay result, entry Cc1cc(O)cc(C)c1/C=C/c1cncc(C(=O)OC(C)(C)C)c1 — outcome?
FALSE

Assay result, entry CC(=O)c1cccc(NC(=O)c2ccc(NC3=C(Cl)C(=O)N(Cc4ccccc4)C3=O)cc2)c1 — outcome?
FALSE

Assay result, entry CC1(C)N=C(N)N=C(N)N1c1ccc(Cl)c(Cl)c1 — outcome?
FALSE

Assay result, entry C[C@]12CCc3sc(-c4cccc(F)c4)nc3C1=CC[C@@H]1[C@@H]2CC[C@]2(C)C(=O)CC[C@@H]12 — outcome?
FALSE
